Test system: HT29 colon
ASSAY_NOTES: NCI tumour cell line growth inhibition, 48 h
Respond with MET for TGI values of 40 µM and above, NOT MET for values below.

1. O=C(O)CCC1(Br)CCCCC(Br)C1=O (stereo not given)	MET

Exam item: Please indicate if the recorded TGI for O=C(O)C1CCCCN1C(=O)c1ccccc1 (stereo not given) meets or exceeds 40 µM.
Marked response: MET

Exam item: Please indicate if the recorded TGI for "CC1(C)C(=S)C(C)(C)C1=S" meets or exceeds 40 µM.
Marked response: MET

Exam item: Please indicate if the recorded TGI for COc1ccc2c(c1)nc1n2C(c2c(F)cccc2Cl)SC1 (stereo not given) meets or exceeds 40 µM.
Marked response: MET

Exam item: Please indicate if the recorded TGI for CC(C)=CCc1c(C)cc2cc3c(c(O)c2c1O)C(O)=CC(=O)C3(CC=C(C)C)C/C=C(\C)CO (stereo not given) meets or exceeds 40 µM.
Marked response: MET

Exam item: Please indicate if the recorded TGI for "CC[O-].Cc1ccc2cccc([O-])c2n1.Cc1ccc2cccc([O-])c2n1.Cc1ccc2cccc([O-])c2n1.[Ti+4]" meets or exceeds 40 µM.
Marked response: MET

Exam item: Please indicate if the recorded TGI for "O=c1c2ccccc2nc(-c2ccccc2)n1NC(=S)Nc1ccc(Cl)cc1[N+](=O)[O-]" meets or exceeds 40 µM.
Marked response: MET

Exam item: Please indicate if the recorded TGI for O=C1CN2C(Cl)(Cl)C2(c2ccccc2)c2cc(Cl)ccc2N1CC(F)(F)F (stereo not given) meets or exceeds 40 µM.
Marked response: MET

Exam item: Please indicate if the recorded TGI for "Cc1cc(C)cc(Sc2c([N+](=O)[O-])ncn2C)c1" meets or exceeds 40 µM.
Marked response: NOT MET

Exam item: Please indicate if the recorded TGI for "CCCCNC(=O)Nc1c(C(N)=O)c2n(c1C(=O)OCC)CCCCC2" meets or exceeds 40 µM.
Marked response: MET

Exam item: Please indicate if the recorded TGI for "C#CCNC(=O)CC[C@]1(C)[C@H]2CC[C@@H]3[C@@H]([C@@](C)(O)CCC=C(C)C)CC[C@@]3(C)[C@]2(C)CC[C@H]1C(=C)C" meets or exceeds 40 µM.
Marked response: MET

// data source = PubChem BioAssay (NCI)
